# measuredOn: T1, monkey 4-1BB on CHOK1 cells (monkey)
# T1 construct: whole, on cells; also called CHOK1-c4-1BB
# method: FACS, CHOK1-c4-1BB cells; Ab 0.00064 ug/ml
measurementLabel: average fluorescence intensity (MFI)
Kindly provide the numeric value in MFI only, without the unit symbol.

The examples below pair each entry with its known result.
binder	average fluorescence intensity (MFI)
170D7F2 (antibody, V domains shown) VH: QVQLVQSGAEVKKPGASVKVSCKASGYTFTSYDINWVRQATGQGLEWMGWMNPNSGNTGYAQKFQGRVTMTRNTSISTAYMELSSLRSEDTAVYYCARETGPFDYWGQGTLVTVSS VL: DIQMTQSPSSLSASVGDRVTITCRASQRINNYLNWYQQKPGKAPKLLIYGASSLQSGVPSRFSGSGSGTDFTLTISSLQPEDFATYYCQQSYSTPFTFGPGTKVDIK	4
118F3A2 (antibody, V domains shown) VH: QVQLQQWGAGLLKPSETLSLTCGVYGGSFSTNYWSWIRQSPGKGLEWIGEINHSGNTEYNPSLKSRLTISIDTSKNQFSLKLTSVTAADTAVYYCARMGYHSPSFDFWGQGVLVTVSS VL: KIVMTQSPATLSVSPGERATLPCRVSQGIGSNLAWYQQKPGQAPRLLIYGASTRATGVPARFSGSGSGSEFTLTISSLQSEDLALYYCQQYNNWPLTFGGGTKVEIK	4.9
57B3D10 (antibody, V domains shown, also called 4-1BB fully human antibody 57B3D10) VH: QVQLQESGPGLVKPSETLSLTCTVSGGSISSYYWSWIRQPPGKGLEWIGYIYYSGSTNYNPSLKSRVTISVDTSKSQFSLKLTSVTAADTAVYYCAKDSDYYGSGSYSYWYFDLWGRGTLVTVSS VL: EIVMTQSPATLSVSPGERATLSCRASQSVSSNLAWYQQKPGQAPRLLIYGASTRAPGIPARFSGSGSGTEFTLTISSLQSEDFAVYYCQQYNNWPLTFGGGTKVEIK	5.6

With those in mind, consider the next binder.
-- ask For 172E3E3 (antibody, V domains shown) VH: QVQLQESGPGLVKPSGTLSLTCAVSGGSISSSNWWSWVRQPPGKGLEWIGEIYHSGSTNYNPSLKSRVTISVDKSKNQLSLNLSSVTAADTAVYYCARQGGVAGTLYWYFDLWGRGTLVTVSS VL: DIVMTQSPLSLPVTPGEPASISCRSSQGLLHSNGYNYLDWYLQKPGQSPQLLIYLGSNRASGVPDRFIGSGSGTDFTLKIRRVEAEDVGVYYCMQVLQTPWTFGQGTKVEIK , write its average fluorescence intensity.
-- reply 71.7
